- study target: hCX3CR1 (Homo sapiens)
- method summary: in vitro hCX3CR1 binding assay ([125I]-fractalkine competition binding, membranes)
- settings: competition with 10 pM [125I]-fractalkine, membranes of HEKS 293 cells expressing hCX3CR1, 25° C., 24 h
pKi: −log10 of the molar value.
experimental readout: pKi

A = CC(C)C[C@H](CO)Nc1nc(S[C@@H](C)c2ccncc2Cl)nc2nc(N)sc12 [Example 9b]
B = CC(C)C[C@H](CO)Nc1nc(S[C@@H](C)c2ccc(F)cn2)nc2nc(N)sc12 (single isomer, unassigned) [Example 3]
C = CC(C)C[C@H](CO)Nc1nc(S[C@@H](C)c2cc(C#N)ccn2)nc2nc(N)sc12 [Example 8]
D = CCC[C@H](CO)N(C)c1nc(S[C@@H](C)c2ccc(Cl)nc2)nc2nc(N)sc12 [Example 6]
I'd appreciate it if you sorted the entries above by their pKi, lowest to highest. Returns: the labels arranged in the requested order.
D, C, A, B

---

- study target: hCX3CR1 (Homo sapiens, UniProt P49238)
- Construct: expressed in transfected cells; host or cells: HEKS 293 (human embryonic kidney suspension) cells stably expressing chimeric G-protein Gαqi5
- Sequence (P49238 whole entry): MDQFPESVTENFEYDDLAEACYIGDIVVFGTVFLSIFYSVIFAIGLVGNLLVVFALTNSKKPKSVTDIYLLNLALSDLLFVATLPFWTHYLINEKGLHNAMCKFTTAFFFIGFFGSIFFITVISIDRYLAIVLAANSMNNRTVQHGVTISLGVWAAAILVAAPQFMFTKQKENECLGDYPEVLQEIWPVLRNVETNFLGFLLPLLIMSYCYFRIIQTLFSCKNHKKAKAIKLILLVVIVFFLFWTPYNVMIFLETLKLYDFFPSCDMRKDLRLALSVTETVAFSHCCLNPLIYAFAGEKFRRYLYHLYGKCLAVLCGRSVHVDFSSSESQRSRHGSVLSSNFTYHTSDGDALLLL
- method summary: in vitro hCX3CR1 binding assay ([125I]-fractalkine competition binding, membranes)
- settings: competition with 10 pM [125I]-fractalkine, membranes of HEKS 293 cells expressing hCX3CR1, 25° C., 24 h
experimental readout: Ki (nM)

molecule	experimental readout	measurement unit	observed value
CC(C)C[C@H](CO)Nc1nc(SC(C)c2ccc(F)cn2)nc2nc(N)sc12 (mixture of isomers)	Ki	nM	21

P = CC(C)C[C@H](CO)Nc1nc(S[C@@H](C)c2ccc(Cl)cn2)nc2nc(N)sc12
Q = CC(C)C[C@H](CO)Nc1nc(S[C@@H](C)c2ncccc2F)nc2nc(N)sc12
R = CCC[C@H](CO)Nc1nc(S[C@@H](C)c2ccc(Cl)nc2)nc2nc(N)sc12
Please put the entries in order of rising Ki. Return value: ordered labels per request.
P, Q, R
(P: 6.2 nM, Q: 23 nM, R: 149 nM)
